Entry source: the NIST ThermoML archive (doi:10.1016/j.fluid.2016.07.022)

Settings: 343.15 K; 101.33 kPa; Liquid; Falling or rolling sphere viscometry
measured parameter: viscosity (mPa·s)

* CC(=O)[O-].CCCC[NH2+]CCO [N-(2-hydroxyethyl)butan-1-aminium acetate] | 34.5
* CCC(=O)[O-].CCCC[NH2+]CCO [N-(2-hydroxyethyl)butan-1-aminium propionate] | 41.6
* CCCC(=O)[O-].CCCC[NH2+]CCO [N-(2-hydroxyethyl)butan-1-aminium butyrate] | 43.1

[P] CCCCC(=O)[O-].CCCC[NH2+]CCO [N-(2-hydroxyethyl)butan-1-aminium pentanoate]
[Q] CCCC[NH2+]CCO.O=C[O-] [N-(2-hydroxyethyl)butan-1-aminium formate]
In: Given the two records P and Q , choose the one whose viscosity value is lower. Output the label that corresponds to your choice.
Out: Q
(Q: 29.3 mPa·s, P: 45.4 mPa·s)
